logP values for the molecules below.
Lab note: write the figure by itself, no unit.

INSERT INTO results (molecule, property_label, observed_measurement) VALUES
  ('CCN1CCCC1CNC(=O)c1cc(S(=O)(=O)CC)c(N)cc1OC (stereo unspecified)', 'logP', 2.42),
  ('C=CCN1CCCC1CNC(=O)c1cc2[nH]nnc2cc1OC (stereo unspecified)', 'logP', 2.22),
  ('OCCN1CCN(CCCN2c3ccccc3Sc3ccc(C(F)(F)F)cc32)CC1', 'logP', 4.55),
  ('COc1ccc(S(N)(=O)=O)cc1C(=O)NCC1CCCN1Cc1ccc(F)cc1 (stereo unspecified)', 'logP', 2.08),
  ('O=c1[nH]c2ccccc2n1C1CCN(CCCC(c2ccc(F)cc2)c2ccc(F)cc2)CC1', 'logP', 6.06),
  ('COc1ccc(S(N)(=O)=O)cc1C(=O)NCC1CCCN1C (stereo unspecified)', 'logP', 1.01),
  ('COc1cc(C(=O)NCc2ccc(OCCN(C)C)cc2)cc(OC)c1OC', 'logP', 2.04),
  ('NC(=O)C1(N2CCCCC2)CCN(CCCC(=O)c2ccc(F)cc2)CC1', 'logP', 2.68);

(Q) Recorded logP of CCN1CCCC1CNC(=O)c1cc(S(=O)(=O)CC)ccc1OC (stereo unspecified) , please.
(A) 2.05

(Q) Recorded logP of COc1cccc(C(=O)NC2C[C@H]3CC[C@@H](C2)N3Cc2ccccc2)c1OC (stereo partly specified) , please.
(A) 3.07

(Q) Recorded logP of O=C(NCCN1CCC(n2c(=O)[nH]c3cc(Cl)ccc32)CC1)c1ccc(F)cc1 , please.
(A) 4.02

Reference source for all entries: the SangsterLogP compilation
